- System Name: Lysine-specific demethylase 4E (Homo sapiens)
- Sequence (B2RXH2 whole entry): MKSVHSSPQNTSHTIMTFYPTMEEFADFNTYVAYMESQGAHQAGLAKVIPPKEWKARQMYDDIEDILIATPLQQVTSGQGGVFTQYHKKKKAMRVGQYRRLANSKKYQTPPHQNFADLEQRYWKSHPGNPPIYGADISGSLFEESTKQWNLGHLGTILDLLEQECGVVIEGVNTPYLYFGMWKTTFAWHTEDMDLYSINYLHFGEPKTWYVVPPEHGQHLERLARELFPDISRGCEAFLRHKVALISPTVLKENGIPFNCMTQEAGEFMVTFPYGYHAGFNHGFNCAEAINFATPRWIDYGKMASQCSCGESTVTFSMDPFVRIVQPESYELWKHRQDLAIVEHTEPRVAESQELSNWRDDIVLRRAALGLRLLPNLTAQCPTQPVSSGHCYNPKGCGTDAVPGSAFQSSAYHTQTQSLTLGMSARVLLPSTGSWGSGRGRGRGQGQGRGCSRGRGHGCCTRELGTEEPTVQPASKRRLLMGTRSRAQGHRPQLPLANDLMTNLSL
Reported Metric: IC50

INSERT INTO measurements (compound, reported_metric, experimental_value) VALUES
  ('CCCC(=O)O [butanoic acid]', 'IC50', '> 10 mM');

What does the data say about its IC50? Entry: O=C(O)c1cncc(C(=O)O)c1 [pyridine-3,5-dicarboxylic acid]
> 10 mM
